Target: human recombinant H-PGDS (Homo sapiens, UniProt O60760)
Sequence (O60760 whole entry): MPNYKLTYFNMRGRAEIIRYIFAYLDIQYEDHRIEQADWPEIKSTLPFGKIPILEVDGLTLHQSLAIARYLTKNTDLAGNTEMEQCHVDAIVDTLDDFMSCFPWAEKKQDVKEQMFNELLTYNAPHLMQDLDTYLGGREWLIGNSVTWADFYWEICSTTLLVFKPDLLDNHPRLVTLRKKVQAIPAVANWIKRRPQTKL
Assay: Fluorescence intensity h-PGDS TBA enzyme assay
Type: biochemical
Conditions: Examples up to 622 (and 3a, 3b)

compound: COC(=O)c1cnc(N)nc1N1CCC(NC(=O)c2ccc(-c3cccc(F)c3)nc2)CC1
IC50: 0.148 nM
//
compound: O=C(NC1CCN(Cc2cn[nH]c2-c2ccccc2Cl)CC1)c1ccc(-c2cccc(F)c2)nc1
IC50: 0.681 nM
//
compound: COc1ccc(CCCN2CCC(NC(=O)c3ccc(-c4cccc(F)c4)nc3)CC2)cc1
IC50: 0.748 nM
//
compound: CC(C)(C)OC(=O)NC1CCC(CN2CCC(NC(=O)c3ccc(-c4cccc(F)c4)nc3)CC2)CC1 (stereo not shown)
IC50: 1.68 nM

====

Target: human recombinant H-PGDS (Homo sapiens)
Assay: Fluorescence intensity h-PGDS TBA enzyme assay
Format: biochemical
Settings: Examples up to 622 (and 3a, 3b)
pIC50: −log10 of the molar value.
Rule: pIC50 under 9 gives no (0), otherwise yes (1).

compound: CC(C)(CN1CCC(NC(=O)c2ccc(-c3cccc(F)c3)nc2)CC1)NC(=O)OC(C)(C)C
tested.on: human recombinant H-PGDS (Homo sapiens)
classification: no (0)
--
compound: Cc1nc(-c2ccccn2)nc(N2CCC(NC(=O)c3ccc(-c4cccc(F)c4)nc3)CC2)c1Cl
tested.on: human recombinant H-PGDS (Homo sapiens)
classification: no (0)
--
compound: CC(C)CN(C)C(=O)c1ccc(N2CCC(NC(=O)c3ccc(-c4cccc(F)c4)nc3)CC2)nc1
tested.on: human recombinant H-PGDS (Homo sapiens)
classification: no (0)
--
compound: CC1C=CC(C)N1C(=O)c1ccc(N2CCC(NC(=O)c3ccc(-c4cccc(F)c4)nc3)CC2)nc1 (centres unmarked)
tested.on: human recombinant H-PGDS (Homo sapiens)
classification: no (0)
--
compound: O=C(NC1CCN(Cc2c(F)cccc2F)CC1)c1ccc(-c2cccc(F)c2)nc1
tested.on: human recombinant H-PGDS (Homo sapiens)
classification: yes (1)

====

Target: human recombinant H-PGDS (Homo sapiens, UniProt O60760)
Assay: Fluorescence intensity h-PGDS TBA enzyme assay
Assay type: biochemical
Conditions: Examples up to 622 (and 3a, 3b)
parameter.measured: log10 of IC50 (log10 of the value in nM)

molecular.string: O=C(NC1CN(c2nc3ccccc3o2)C1)c1ccc(-c2cccc(F)c2)nc1
parameter.measured: log10 of IC50
measured.value: 1.03
//
molecular.string: Cc1ccc(C#N)c(N2CC(NC(=O)c3ccc(-c4cccc(F)c4)nc3)C2)n1
parameter.measured: log10 of IC50
measured.value: 0.65
//
molecular.string: Cc1nn(C)cc1CN1CCC(NC(=O)c2ccc(-c3cccc(F)c3)nc2)CC1
parameter.measured: log10 of IC50
measured.value: -0.25
//
molecular.string: Cc1cccc(-n2ccnc2CN2CCC(NC(=O)c3ccc(-c4cccc(F)c4)nc3)CC2)c1
parameter.measured: log10 of IC50
measured.value: -0.04
//
molecular.string: CCc1ncc(CN2CCC(NC(=O)c3ccc(-c4cccc(F)c4)nc3)CC2)cn1
parameter.measured: log10 of IC50
measured.value: 0.44
//
molecular.string: O=C(NC1CCN(Cc2ccc(F)cc2F)CC1)c1ccc(-c2cccc(F)c2)nc1
parameter.measured: log10 of IC50
measured.value: -0.16
//
molecular.string: CNC(=O)c1ccc(N2CCC(NC(=O)c3ccc(-c4cccc(F)c4)nc3)CC2)nn1
parameter.measured: log10 of IC50
measured.value: -0.39
//
molecular.string: O=C(NC1CCN(c2ccc(Cl)cn2)CC1)c1ccc(-c2cccc(F)c2)nc1
parameter.measured: log10 of IC50
measured.value: 0.15

====

Biological target: human recombinant H-PGDS (Homo sapiens)
Assay: Fluorescence intensity h-PGDS TBA enzyme assay
Type: biochemical
Details: Examples up to 622 (and 3a, 3b)
pIC50: −log10 of the molar value.

molecular.string: Cc1cc(CN2CCC(NC(=O)c3ccc(-c4cccc(F)c4)nc3)CC2)ccn1
pIC50: 9.29

molecular.string: Cn1c(CN2CCC(NC(=O)c3ccc(-c4cccc(F)c4)nc3)CC2)nc2cc(F)c(F)cc21
pIC50: 8.55

molecular.string: Cc1onc(-c2ccccc2)c1CN1CCC(NC(=O)c2ccc(-c3cccc(F)c3)nc2)CC1
pIC50: 9.76

molecular.string: O=C(NC1CCN(Cc2c[nH]nc2-c2ccccc2)CC1)c1ccc(-c2cccc(F)c2)nc1
pIC50: 9.37

====

Molecular target: human recombinant H-PGDS (Homo sapiens, UniProt O60760)
Assay: Slightly modified h-PGDS TBA enzyme assay (Examples 623 onwards)
Type: biochemical
parameter.measured: log10 of IC50 (log10 of the value in nM)

compound: CCCN1CCC(NC(=O)c2ccc(-c3ccccc3O)nc2)CC1 [Example 631]
log10 of IC50: 1.92

compound: O=C(NC1CCN(CC2CC2)CC1)c1ccc(-c2ccccc2O)nc1 [Example 629]
log10 of IC50: 1.35

compound: O=C(NC1CCN(c2cccnn2)CC1)c1ccc(-c2cc(F)ccc2O)nc1 [Example 639]
log10 of IC50: 4.00

compound: Cn1nnnc1N1CCC(NC(=O)c2ccc(-c3ccccc3O)nc2)CC1 [Example 634]
log10 of IC50: 0.79

compound: N#Cc1cccc(-c2ccc(C(=O)NC3CCN(CC(F)(F)F)CC3)cn2)c1 [Example 623]
log10 of IC50: 2.02

====

This section presents compounds with their documented IC50 values.
Target: human recombinant H-PGDS (Homo sapiens, UniProt O60760)
Assay: Fluorescence intensity h-PGDS TBA enzyme assay
Type: biochemical
Conditions: Examples up to 622 (and 3a, 3b)

compound: CC(C)(C)C(=O)N1CC(NC(=O)c2ccc(-c3cccc(F)c3)nc2)C1 [Example 601]
IC50 [nM]: 6.76

compound: O=C(NC1CCN(c2ncnc3ncccc23)CC1)c1ccc(-c2cccc(F)c2)nc1 [Example 63]
IC50 [nM]: 0.183

compound: COc1ccc(CC2CC(NC(=O)c3ccc(-c4cccc(F)c4)nc3)CCN2)cc1OC (stereo not shown) [Example 212]
IC50 [nM]: 1.4

compound: O=C(NC1CCN(c2ncccc2C(=O)N2CCOCC2)CC1)c1ccc(-c2cccc(F)c2)nc1 [Example 146]
IC50 [nM]: 1.55

====

Consider the following compounds and their measured IC50 readings.
Biological target: human recombinant H-PGDS (Homo sapiens)
Assay: Fluorescence intensity h-PGDS TBA enzyme assay
Assay type: biochemical
Conditions: Examples up to 622 (and 3a, 3b)

compound: O=C(NC1CCN(c2ccc(C(=O)N3CCCC3)cn2)CC1)c1ccc(-c2cccc(F)c2)nc1
tested.on: human recombinant H-PGDS (Homo sapiens)
IC50 (nM): 2.3
--
compound: O=C(NC1CCN(Cc2ccnc3ncccc23)CC1)c1ccc(-c2cccc(F)c2)nc1
tested.on: human recombinant H-PGDS (Homo sapiens)
IC50 (nM): 0.724
--
compound: NC(=O)CCN1CCC(N2CCC(NC(=O)c3ccc(-c4cccc(F)c4)nc3)CC2)CCC1=O (stereo not shown)
tested.on: human recombinant H-PGDS (Homo sapiens)
IC50 (nM): 6.56
--
compound: O=C(NC1CCN(Cc2ccc3c(n2)NCCC3)CC1)c1ccc(-c2cccc(F)c2)nc1
tested.on: human recombinant H-PGDS (Homo sapiens)
IC50 (nM): 0.881

====

Biological target: human recombinant H-PGDS (Homo sapiens)
Assay: Fluorescence intensity h-PGDS TBA enzyme assay
Type: biochemical
Conditions: Examples up to 622 (and 3a, 3b)
Criterion: IC50 strictly less than 2 nM. Met: Fulfilled. Not met: Not fulfilled.

compound: O=C(NC1CCN(CC(F)(F)F)CC1)c1ccc(-c2cccc(F)c2)nc1 [Example 2]
classification: Fulfilled

compound: O=C(NC1CCN(Cc2c[nH]cn2)CC1)c1ccc(-c2cccc(F)c2)nc1 [Example 294]
classification: Fulfilled

compound: Cc1nn(C(C)C)c(C)c1CN1CCC(NC(=O)c2ccc(-c3cccc(F)c3)nc2)CC1 [Example 361]
classification: Fulfilled

compound: O=C(NC1CCN(Cc2cc(F)cc(F)c2)CC1)c1ccc(-c2cccc(F)c2)nc1 [Example 248]
classification: Fulfilled

compound: O=C(NC1CCN(c2nccnc2Cc2ccccc2)CC1)c1ccc(-c2cccc(F)c2)nc1 [Example 79]
classification: Not fulfilled

compound: Cc1c(CN2CCC(NC(=O)c3ccc(-c4cccc(F)c4)nc3)CC2)c(=O)n(-c2ccccc2)n1C [Example 232]
classification: Not fulfilled

compound: O=C1COc2ncc(CN3CCC(NC(=O)c4ccc(-c5cccc(F)c5)nc4)CC3)cc2N1 [Example 514]
classification: Fulfilled

compound: Cn1ccnc1-c1nc(N2CCC(NC(=O)c3ccc(-c4cccc(F)c4)nc3)CC2)nc2ccccc12 [Example 62]
classification: Not fulfilled

compound: Cc1cc(C)c(C#N)c(N2CC(NC(=O)c3ccc(-c4cccc(F)c4)nc3)C2)n1 [Example 602]
classification: Not fulfilled

compound: O=C(NC1CCN(Cc2ccc(=O)[nH]c2)CC1)c1ccc(-c2cccc(F)c2)nc1 [Example 378]
classification: Fulfilled

compound: Cn1nc(-c2ccccc2)c(CN2CCC(NC(=O)c3ccc(-c4cccc(F)c4)nc3)CC2)c1Cl [Example 195]
classification: Fulfilled

compound: O=C(NC1CN(c2ncccc2C(F)(F)F)C1)c1ccc(-c2cccc(F)c2)nc1 [Example 604]
classification: Not fulfilled

compound: O=C(NC1CCN(Cc2coc(-c3ccccc3)n2)CC1)c1ccc(-c2cccc(F)c2)nc1 [Example 426]
classification: Not fulfilled

compound: CCCCc1nc(CN2CCC(NC(=O)c3ccc(-c4cccc(F)c4)nc3)CC2)c[nH]1 [Example 199]
classification: Not fulfilled

compound: O=C(NC1CCN(Cc2c[nH]c3c(F)c(F)c(F)c(F)c23)CC1)c1ccc(-c2cccc(F)c2)nc1 [Example 349]
classification: Not fulfilled

compound: O=C(NC1CCN(CC2CC2)CC1)c1ccc(-c2cccc(F)c2)nc1 [Example 596]
classification: Fulfilled

Numbers sourced from patent US7902373B2.
